All figures here come from patent US20040242591A1.

test system: S.aureus ATCC 25923; assay: MIC by agar incorporation method, S.aureus 25923; type: cell-based, Staphylococus aureus; set-up: unit not given here; settings: Mueller Hinton agar, 10^4 CFU/spot, 18 hours
Rule: In Vitro (MIC) S.aureus 25923 of 4 or more gives met; anything lower gives not met.

COMPOUND	CATEGORY
CCN(C(=O)c1ccc([N+](=O)[O-])o1)C1CCN(c2ccc(N3C[C@H](CNC(C)=O)OC3=O)cc2F)CC1	not met
CC(=O)NC[C@H]1CN(c2ccc(N3CCN(C(=O)c4ccc([N+](=O)[O-])o4)C(C)C3)c(F)c2)C(=O)O1 (some centres unmarked)	not met
CC(=O)NC[C@H]1CN(c2ccc(N3C(C)CN(C(=O)Cc4cccs4)CC3C)c(F)c2)C(=O)O1 (some centres unmarked)	met
CC(=O)NC[C@H]1CN(c2ccc(N3C(C)CN(Cc4ccc([N+](=O)[O-])o4)CC3C)c(F)c2)C(=O)O1 (some centres unmarked)	met
CC(=O)NC[C@H]1CN(c2ccc(N3CCN(C(=O)c4ccc(-c5ccc(Cl)cc5[N+](=O)[O-])o4)CC3)c(F)c2)C(=O)O1	not met
CC(=O)NC[C@H]1CN(c2ccc(N3CCC(N(C)C(=O)c4ccc([N+](=O)[O-])o4)C3)c(F)c2)C(=O)O1 (some centres unmarked)	not met
CC(=O)NC[C@H]1CN(c2ccc(N3CCN(Cc4cc(C#N)c([N+](=O)[O-])s4)CC3)c(F)c2)C(=O)O1	not met
CC(=O)NC[C@H]1CN(c2ccc(N3CCN(Cc4oc([N+](=O)[O-])cc4C)CC3)c(F)c2)C(=O)O1	not met
CC(=O)NC[C@H]1CN(c2ccc(N3CCN(C(=O)c4cc([N+](=O)[O-])[nH]n4)CC3)c(F)c2)C(=O)O1	met
CC(=O)NC[C@H]1CN(c2ccc(N3CCN(C(=O)c4oc([N+](=O)[O-])cc4C)CC3)c(F)c2)C(=O)O1	not met
CC(=O)NC[C@H]1CN(c2ccc(N3CCC(N(C)C(=O)c4ccc([N+](=O)[O-])o4)C(C)C3)c(F)c2)C(=O)O1 (some centres unmarked)	not met
O=C(CCl)NC[C@H]1CN(c2ccc(N3CCN(Cc4ccc([N+](=O)[O-])o4)CC3)c(F)c2)C(=O)O1	not met
CC(=O)NC[C@H]1CN(c2ccc(N3CCN(C(=O)c4occc4C)CC3)c(F)c2)C(=O)O1	not met
CC(=O)NC[C@H]1CN(c2ccc(N3CCC(CN(C)Cc4ccc([N+](=O)[O-])o4)CC3)c(F)c2)C(=O)O1 [Compound No. 93]	not met
O=C(NC[C@H]1CN(c2ccc(N3CCN(Cc4ccc([N+](=O)[O-])o4)CC3)c(F)c2)C(=O)O1)C(F)F	not met
CC(=O)NC[C@H]1CN(c2ccc(N3CCN(C(C)c4ccc([N+](=O)[O-])o4)CC3)c(F)c2)C(=O)O1 (some centres unmarked)	not met
CC(=O)NC[C@H]1CN(c2ccc(N3CCN(Cc4cc(Br)c([N+](=O)[O-])o4)CC3)c(F)c2)C(=O)O1	not met
CC(=O)NC[C@H]1CN(c2ccc(N3CCN(C(=O)c4ccc(NC(C)=O)s4)CC3)c(F)c2)C(=O)O1	met
